study-target: BuChE (E.C. 3.1.1.8) (Equus caballus, UniProt P81908)
Construct: purchased Sigma-Aldrich; host or cells: equine serum (natural source)
Sequence (P81908 whole entry): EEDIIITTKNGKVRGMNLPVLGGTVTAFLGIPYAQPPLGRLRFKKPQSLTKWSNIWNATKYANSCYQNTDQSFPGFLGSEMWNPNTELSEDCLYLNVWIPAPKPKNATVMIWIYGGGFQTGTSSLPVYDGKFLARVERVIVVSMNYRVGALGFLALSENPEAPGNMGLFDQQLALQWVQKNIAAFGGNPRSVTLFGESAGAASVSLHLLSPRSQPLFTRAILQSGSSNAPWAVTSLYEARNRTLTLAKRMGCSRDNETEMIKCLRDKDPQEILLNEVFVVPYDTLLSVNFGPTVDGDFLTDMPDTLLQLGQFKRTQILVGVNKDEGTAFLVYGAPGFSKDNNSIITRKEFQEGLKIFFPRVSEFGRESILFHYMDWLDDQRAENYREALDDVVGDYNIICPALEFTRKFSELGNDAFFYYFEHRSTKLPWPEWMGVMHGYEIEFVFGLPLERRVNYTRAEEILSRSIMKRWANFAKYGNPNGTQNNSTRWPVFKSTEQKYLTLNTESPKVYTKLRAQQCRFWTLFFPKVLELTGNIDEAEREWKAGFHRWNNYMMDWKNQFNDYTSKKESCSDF
experiment-notes: biochemical
cond: SI ratio; values match IC50 AChE / IC50 BuChE
readout-label: SI (selectivity towards BuChE)

Form field: reported SI (selectivity towards BuChE) of Cc1ccc(-c2noc(C3CCN(Cc4ccccc4)CC3)n2)cc1
> 10.19

Now the compound c1ccc(CN2CCC(c3nc(-c4ccccc4)no3)CC2)cc1
2.49

Now the compound Fc1ccc(-c2noc(C3CCN(Cc4ccccc4)CC3)n2)cc1
0.85

Now the compound Clc1ccc(-c2noc(C3CCN(Cc4ccccc4Cl)CC3)n2)cc1
> 1.23

Now the compound Cc1ccc(-c2noc(C3CCN(Cc4ccc(F)cc4)CC3)n2)cc1
> 1.97

Now the compound Cc1ccc(CN2CCC(c3nc(-c4ccc(C)cc4)no3)CC2)cc1
> 1.59

Now the compound Cc1ccc(-c2noc(C3CCN(Cc4ccc(Cl)cc4)CC3)n2)cc1
> 1.98
